measurement_target: UniProt:P22607
Sequence (P22607 23-806 limits assumed): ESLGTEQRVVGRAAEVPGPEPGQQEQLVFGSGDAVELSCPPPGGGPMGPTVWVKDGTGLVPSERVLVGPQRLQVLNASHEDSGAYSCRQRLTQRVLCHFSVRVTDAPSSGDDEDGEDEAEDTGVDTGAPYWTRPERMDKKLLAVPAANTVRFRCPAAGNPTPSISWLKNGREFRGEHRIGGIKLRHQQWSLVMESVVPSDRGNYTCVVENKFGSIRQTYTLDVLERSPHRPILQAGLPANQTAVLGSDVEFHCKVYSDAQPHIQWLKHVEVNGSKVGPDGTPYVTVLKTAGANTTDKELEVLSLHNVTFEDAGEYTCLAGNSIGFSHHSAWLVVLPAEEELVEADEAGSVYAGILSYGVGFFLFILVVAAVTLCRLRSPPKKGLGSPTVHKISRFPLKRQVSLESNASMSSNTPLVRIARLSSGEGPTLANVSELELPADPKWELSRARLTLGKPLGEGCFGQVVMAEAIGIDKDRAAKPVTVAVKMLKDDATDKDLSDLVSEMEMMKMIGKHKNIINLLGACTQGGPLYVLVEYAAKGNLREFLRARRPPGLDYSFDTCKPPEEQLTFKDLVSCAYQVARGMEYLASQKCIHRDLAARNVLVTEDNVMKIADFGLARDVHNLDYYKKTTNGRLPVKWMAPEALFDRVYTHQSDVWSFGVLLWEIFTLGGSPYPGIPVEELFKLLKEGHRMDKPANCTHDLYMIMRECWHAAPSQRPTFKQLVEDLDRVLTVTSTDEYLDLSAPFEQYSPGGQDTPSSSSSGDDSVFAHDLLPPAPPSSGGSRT
protocol_conditions: Compound concentration 20.0 uM, Protein concentration 2.0 uM, Result type QC Liability
Description: Thermal Shift Assay. Domain: start/stop: P449-E759
Checkbox rule: ΔTm lower than 0.5 °C = yes (1); ΔTm not lower than 0.5 °C = no (0).

Challenge: # strict comparison: is reported ΔTm < 0.5 °C? input = Cc1nn(-c2ccccc2)c(Nc2ccccc2C(=O)O)c1-c1cc2nccnc2c(F)c1F
Response given: no (0)

Challenge: # strict comparison: is reported ΔTm < 0.5 °C? input = CC(C)(C[C@H]1CN(S(=O)(=O)c2cccc(C(F)(F)F)c2)c2cc(-c3cc(F)cc(OC(F)F)c3)ccc2O1)C(=O)O
Response given: yes (1)

Challenge: # strict comparison: is reported ΔTm < 0.5 °C? input = CN(C)CCCNc1ccnc(Nc2cccc(Cl)c2)n1
Response given: no (0)

Challenge: # strict comparison: is reported ΔTm < 0.5 °C? input = CC(C)NC(=O)[C@H]1CCC[C@H]1Nc1nc(Nc2ccc(CN(C)C)cc2)ncc1Br
Response given: no (0)

Challenge: # strict comparison: is reported ΔTm < 0.5 °C? input = CCC(C(=O)Nc1ccc(-c2cc3ccccc3s2)c(C(N)=O)c1)c1nccs1 (centres undefined)
Response given: yes (1)

Challenge: # strict comparison: is reported ΔTm < 0.5 °C? input = C=CC(=O)Nc1ccc2[nH]c(=O)n(C3CCN(Cc4ccc(-c5ccc6c(c5)NC(=O)CO6)cc4)CC3)c2c1
Response given: yes (1)

Challenge: # strict comparison: is reported ΔTm < 0.5 °C? input = CC(C)(O)c1cn(-c2ccc(-c3cccc(S(C)(=O)=O)c3)cc2)c(C(C)(C)c2ccccc2Cl)n1
Response given: yes (1)

Challenge: # strict comparison: is reported ΔTm < 0.5 °C? input = COCCc1ccc(-c2c(C)nc3c(N4CCOCC4)ccnn23)cn1
Response given: no (0)
